- Tested on: NRP Mtb H37Rv cells
- test.protocol: Low-oxygen recovery assay (LORA) MIC
- Format: cell-based, Mycobacterium tuberculosis
- assay.conditions: Mycobacterium tuberculosis, H37RV; NRP Mtb; Tables 1-4 and text; read-out: LORA MIC - ITR
MIC strictly less than 0.4 mg/L = condition met. Otherwise condition not met.

For orientation, consider the following solved cases.
# compound, label
measured = [
    ("COc1ccc2c(c1)[n+]([O-])nc(N[C@@H]1C[C@H]3CC[C@@H]1C3)[n+]2[O-] [Compound 15dm]", "condition not met"),
    ("COc1ccc2c(c1)[n+]([O-])nc(NC1CCC1)[n+]2[O-] [Compound 15dd]", "condition not met"),
    ("CCN(CC)c1n[n+]([O-])c2ccccc2[n+]1[O-] [Compound 17o]", "condition not met"),
    ("[O-][n+]1nc(NC2CC2)[n+]([O-])c2ccc(Cl)cc21 [Compound 15bb]", "condition met"),
    ("[O-][n+]1nc(N2CCOCC2)[n+]([O-])c2ccccc21 [Compound 17p]", "condition not met"),
]

Check if MIC falls below 0.4 mg/L for `[O-][n+]1nc(N[C@@H]2C[C@H]3CC[C@@H]2C3)[n+]([O-])c2ccccc21` .
condition not met

# strict comparison: is reported MIC < 0.4 mg/L? input = CN(CCc1ccccc1)c1n[n+]([O-])c2cc3c(cc2[n+]1[O-])CCC3 [Compound 20u]
condition not met

Could you please tell me whether MIC recorded for [O-][n+]1nc(N[C@@H]2C[C@H]3CC[C@@H]2C3)[n+]([O-])c2cc3c(cc21)CCC3 [Compound 15fm] is less than 0.4 mg/L?
condition met

In the record for CCNc1n[n+]([O-])c2cc3c(cc2[n+]1[O-])CCC3 [Compound 15fa] , is MIC less than 0.4 mg/L?
condition not met

Lab note: MIC threshold 0.4 mg/L. Does this compound come in strictly under it? NNC(=O)c1ccncc1 [INH, Isoniazid, reference compound]
condition not met

hey, is MIC for [O-][n+]1nc(NC2CCCC2)[n+]([O-])c2ccc(F)cc21 [Compound 15ae] lower than 0.4 mg/L or not?
condition met

====

Recorded measurements of Vero Tox CC50, one per entry
- System: Vero cells
- assay.conditions: African green monkey, 72 h

Please review the following examples before continuing.
# molecule, result.value
records = [
    ("[O-][n+]1nc(N[C@@H]2C[C@H]3CC[C@@H]2C3)[n+]([O-])c2ccc(Br)cc21 [Compound 15cm]", "0.80 µg/mL"),
    ("COCCNC(=O)c1ccc2c(c1)[n+]([O-])c(O)c(C#N)[n+]2[O-]", ">16 µg/mL"),
    ("CS(=O)(=O)N1CCN(c2n[n+]([O-])c3cc4c(cc3[n+]2[O-])CCC4)CC1 [Compound 20x]", ">50 µg/mL"),
    ("[O-][n+]1nc(NC2CCCCC2)[n+]([O-])c2ccc(Cl)cc21 [Compound 15bf]", "2.6 µg/mL"),
    ("[O-][n+]1nc(NC2CCC2)[n+]([O-])c2ccc(Br)cc21 [Compound 15cd]", "3.8 µg/mL"),
]

// below: Vero Tox CC50 requested for another molecule
Hello, please tell me recorded Vero Tox CC50 for this one: [O-][n+]1nc(NC2CCCC2)[n+]([O-])c2ccc(Br)cc21 [Compound 15ce]
18 µg/mL

====

A collection of molecules and their measured Vero Tox CC50
- Tested on: Vero cells
Enter your answer as a number in µg/mL; do not include the unit.

# molecule, result.value
rows = [
    ("O=S1(=O)CCN(c2n[n+]([O-])c3cc4c(cc3[n+]2[O-])CCC4)CC1 [Compound 20v]", 17),
    ("CCNc1n[n+]([O-])c2cccc(C)c2[n+]1[O-] [Compound 15ea]", 22),
    ("[O-][n+]1nc(N[C@H]2[C@@H]3C[C@H]4C[C@@H](C3)C[C@@H]2C4)[n+]([O-])c2ccccc21", 7.3),
]

Note: attention shifts to another entry.
Tell us which Vero Tox CC50 value is on record for [O-][n+]1nc(NC2CCC2)[n+]([O-])c2cc3c(cc21)CCC3 [Compound 15fd]
34

====

- Tested on: Mtb H37Rv
- test.protocol: TB MIC - SRI, resazurin-based microplate assay
- Assay type: cell-based, Mycobacterium tuberculosis
- assay.conditions: Mycobacterium tuberculosis, H37RV, Tables P1-P3; read-out: TB MIC - SRI
Recorded log10 MIC by entry
Reminder: these figures are log10 of reported MIC, in µg/mL before transformation.

Example entries and their recorded answers appear below.
# compound, log10 MIC
measured = [
    ("CCNc1n[n+]([O-])c2cc(Cl)ccc2[n+]1[O-]", 0.10),
    ("CCNc1n[n+]([O-])c2cc(C)c(C)cc2[n+]1[O-]", 0.40),
    ("[O-][n+]1nc(NC2CCC2)[n+]([O-])c2ccc(F)cc21", -0.51),
    ("[O-][n+]1nc(NC2CC2)[n+]([O-])c2ccc(Cl)cc21", -0.20),
    ("[O-][n+]1nc(NC2CCCCC2)[n+]([O-])c2ccc(F)cc21", -0.20),
]

State its log10 MIC: `CS(=O)(=O)N1CCN(c2n[n+]([O-])c3cc4c(cc3[n+]2[O-])CCC4)CC1`
0.70

Indicate the recorded log10 MIC value for this compound: C[C@@H]1[C@H]2C[C@@H](C[C@H]1Nc1n[n+]([O-])c3cc(F)ccc3[n+]1[O-])C2(C)C (racemic)
-0.51

Respond only with log10 MIC recorded for [O-][n+]1nc(N[C@@H]2C[C@H]3CC[C@@H]2C3)[n+]([O-])c2cc3c(cc21)CCC3 (racemic)
0.10

Output log10 MIC of `CCNc1n[n+]([O-])c2cc(Br)ccc2[n+]1[O-]`
-0.20

Hello, please tell me recorded log10 MIC for this one: `COc1ccc2c(c1)[n+]([O-])nc(N[C@@H]1C[C@H]3CC[C@@H]1C3)[n+]2[O-]`
-0.20

Tell us which log10 MIC value is on record for CCC(C)Nc1n[n+]([O-])c2ccccc2[n+]1[O-] (stereo not shown)
0.40

Give a short answer stating reported log10 MIC for `[O-][n+]1nc(N[C@@H]2C[C@H]3CC[C@@H]2C3)[n+]([O-])c2ccc(Br)cc21` .
-0.51

Identify measured log10 MIC corresponding to CC(C)C(C)Nc1n[n+]([O-])c2ccccc2[n+]1[O-] (stereo not shown)
0.70

====

- test.protocol: in vitro
- assay.conditions: African green monkey, VERO Tox (CC50)
measured.quantity: CC50 at 72 h

# compound, measured.quantity, result.value
records = [
    ("[O-][n+]1nc(NC2CCCC2)[n+]([O-])c2ccccc21", "CC50 at 72 h", "10.4 µg/mL"),
    ("[O-][n+]1nc(NC2CC2)[n+]([O-])c2ccccc21", "CC50 at 72 h", "20.7 µg/mL"),
    ("[O-][n+]1nc(NC2CCC2)[n+]([O-])c2ccccc21", "CC50 at 72 h", "8.9 µg/mL"),
    ("CC(C)C(C)Nc1n[n+]([O-])c2ccccc2[n+]1[O-] (stereo not drawn)", "CC50 at 72 h", "21 µg/mL"),
    ("CCC(COC)Nc1n[n+]([O-])c2cc(Cl)ccc2[n+]1[O-] (stereo not drawn) [Compound 15bi]", "CC50 at 72 h", "2.6 µg/mL"),
]

Supply measured CC50 at 72 h of CC(C)(C)C1CCC(Nc2n[n+]([O-])c3ccccc3[n+]2[O-])CC1 (stereo not drawn) in your reply.
2.3 µg/mL

====

- Tested on: Mtb H37Rv
- test.protocol: TB MIC - SRI, resazurin-based microplate assay
- Format: cell-based, Mycobacterium tuberculosis
- assay.conditions: Mycobacterium tuberculosis, H37RV, Tables P1-P3; read-out: TB MIC - SRI
Measured MIC values are reported for all entries that follow.
Respond numerically; units are µg/mL and should not be typed.

For orientation, consider the following solved cases.
# compound, target.entity, result.value
rows = [
    ("[O-][n+]1nc(NC2CCCCC2)[n+]([O-])c2ccc(Cl)cc21", "Mtb H37Rv", 0.625),
    ("[O-][n+]1nc(N[C@@H]2C[C@H]3CC[C@@H]2C3)[n+]([O-])c2ccccc21 (racemic)", "Mtb H37Rv", 0.625),
    ("Cc1cccc2c1[n+]([O-])c(N)n[n+]2[O-]", "Mtb H37Rv", 0.625),
    ("CC(C)(C)C1CCC(Nc2n[n+]([O-])c3cc(F)ccc3[n+]2[O-])CC1 (stereo not drawn)", "Mtb H37Rv", 0.312),
    ("CN(CCc1ccccc1)c1n[n+]([O-])c2cc3c(cc2[n+]1[O-])CCC3", "Mtb H37Rv", 0.312),
]

For the compound `[O-][n+]1nc(NC2CCCCCC2)[n+]([O-])c2ccc(F)cc21` , give its measured MIC value.
0.625

Report measured MIC; entry is Cc1cccc2c1[n+]([O-])c(N[C@@H]1C[C@H]3CC[C@@H]1C3)n[n+]2[O-] (racemic)
0.156

In one line, give reported MIC of the entry `Cc1cccc2c1[n+]([O-])c(NC1CCCC1)n[n+]2[O-]` .
0.312

Quickly give me recorded MIC for `[O-][n+]1nc(NC2CCC2)[n+]([O-])c2ccc(Cl)cc21`
0.156

Hey, just so you know, these numbers are from patent US9663478B2.
